# EXPERIMENTAL_SYSTEM: T1, human M-CSF (human, UniProt P09603 33-255, limits assumed); note: test concentration or dose not given here
# T1 construct: also called M-CSF (human); CSF-1
# T1 sequence: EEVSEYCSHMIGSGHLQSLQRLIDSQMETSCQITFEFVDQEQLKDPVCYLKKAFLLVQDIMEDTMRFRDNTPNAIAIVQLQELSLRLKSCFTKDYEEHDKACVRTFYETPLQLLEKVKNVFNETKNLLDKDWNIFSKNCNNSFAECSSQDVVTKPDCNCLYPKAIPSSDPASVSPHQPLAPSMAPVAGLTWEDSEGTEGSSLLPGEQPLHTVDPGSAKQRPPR
# METHOD_NOTES: ELISA
Some binders, each annotated with its measured ELISA fluorescence units.

Maelle (format not stated) (antibody, V domains shown) VH: QVQLQQSGPGLVKPSQTLSLTCAISGESVSTSSAAWNWIRQSPSRGLEWLGRTYYRSKWKKEYAQSVKSRITINPDTSKNQFSLQLNSVTPEDTAVYYCARDRYYYSAFDYWGQGTLVTVSS VL: QSALTQPASVSGSPGQSITISCTGTSSDVGGYNSVSWYQQHPGKAPKLIIYAVSNRPSGVSNRFSGSKSGNTASLTISGLQAEDEADYYCASYDERFTRVFGGGTKLTVLG    > 35000 units

Next item in the queue.
Entry Satine (format not stated) (antibody, V domains shown) VH: EVQLVESGGGLVKPGGSLRLSCAASGFTFSIYAMSWVRQAPGKGLEWVGRIKSNADGGTTEYAAPVKGRFTISRDDSKNTLYLQMNSLKTEDTAVYYCARMRYYSDLYFDPWGQGTLVTVSS VL: SYELTQPPSVSVSPGQTASITCSGDKLGQKYVSWYQQKPGQSPVLVISQDRKRPSGIPERFSGSNSGNTATLTISGTQAEDEADYYCQTWTHLQWVFGGGTKLTVLG : reported ELISA fluorescence units = ?
> 35000 units

Every entry's value here was drawn from patent US20180057581A1.
